tested on: CD69 on CD4+ T cells; assay: CD4+ T-cell activation flow cytometry (CD69); assay type: cell-based; conditions: Homo sapiens; CD4+ T cells from ART-suppressed people with HIV; read-out: EC50, activation of CD69 expression
pEC50: −log10 of the molar value.

| compound | pEC50 |
| --- | --- |
| Cc1ccc(C#Cc2ccc3oc(CC(C)(C)C(=O)OCC4(CO)CC(=CCC(CC(C)C)CC(C)C)C(=O)O4)cc3c2)cc1 (stereo not drawn) [C-232A] | 7.24 |
| Cc1ccc(C#Cc2ccc(C(=O)OCC3(CO)Cc4c(-c5ccccc5)ccnc4O3)cc2)cc1 (stereo not drawn) | 7.00 |
| CC(=O)O[C@@]12C[C@@H](C)[C@@]3(O)[C@@H](C=C(CO)C[C@]4(O)C(=O)C(C)=C[C@@H]34)[C@@H]1C2(C)C [Prostratin, prostratin, reference compound] | 6.55 |

###

Tested on: latent HIV in total CD4+ T cells
Test: microbe, parasite or virus in culture
Type: cell-based, HIV-1
Details: Human immunodeficiency virus 1, CD4+ T, 72 h, read-out: HIV RNA EC50
Method: Peripheral blood mononuclear cells and CD4^+ T cells used for evaluating PKC agonist and inhibitor molecules were isolated from leukopaks of selected participants as described previously. […] Cell supernatants from each well were analyzed using the Cobas […] system for quantification of HIV-1 RNA using the HIV-1 test v2.0 kit (Roche Diagnostics).
pEC50: −log10 of the molar value.
property: pEC50

| compound | property | recorded.value |
| --- | --- | --- |
| Cc1ccc(C#Cc2ccc(C(=O)OCC3(CO)Cc4c(-c5ccccc5)ccnc4O3)cc2)cc1 (stereo not shown) | pEC50 | 6.53 |

###

tested on: platelets (CD62P+) and CD4+ T cells (CD69+) in whole blood; assay: In vitro whole blood platelet and CD4+ T-cell activation assay; format: cell-based, human; settings: whole blood from healthy donors; platelets to CD4+ T cells
Answer Not fulfilled if CD62P EC50/CD69 EC50 ratio Geomean is under 2, and Fulfilled if it is 2 or more.

| compound | assigned.label |
| --- | --- |
| CCCCCC(=O)O[C@H]1C(C)=C[C@]23C(=O)[C@@H](C=C(CO)[C@@H](O)[C@]12O)[C@H]1[C@@H](C[C@H]3C)C1(C)C [Ingenol B, reference compound] | Not fulfilled |
| Cc1ccc(C#Cc2ccc3oc(CC(C)(C)C(=O)OCC4(CO)CC(=CCC(CC(C)C)CC(C)C)C(=O)O4)cc3c2)cc1 (stereo not drawn) [C-232A] | Not fulfilled |
| Cc1ccc(C#Cc2ccc(C(=O)OCC3(CO)Cc4c(-c5ccccc5)ccnc4O3)cc2)cc1 (stereo not drawn) | Fulfilled |
| CCCCCCCCCCCCCC(=O)O[C@@H]1[C@@H](C)[C@@]2(O)[C@@H](C=C(CO)C[C@]3(O)C(=O)C(C)=C[C@@H]23)[C@@H]2C(C)(C)[C@]12OC(C)=O [PMA, phorbol 12-myristate 13-acetate, reference compound] | Not fulfilled |
| CCC/C=C/C=C/C(=O)O[C@H]1/C(=C/C(=O)OC)C[C@H]2C[C@H]([C@@H](C)O)OC(=O)C[C@H](O)C[C@@H]3C[C@H](OC(C)=O)C(C)(C)[C@](O)(C[C@@H]4C/C(=C/C(=O)OC)C[C@H](/C=C/C(C)(C)[C@]1(O)O2)O4)O3 [Bryostatin, reference compound] | Not fulfilled |
